test system: MES-SA cells; test: Antiproliferative activity, doxorubicin sensitive uterine fibrosarcoma; assay type: cell-based; conditions: Homo sapiens; MES-SA uterine fibrosarcoma (sensitive); mean ±SEM of 3 assays; read-out: Drug IC50 Values
Hi there, I'd appreciate the recorded IC50 for every entry that follows.
Give just the numeric value; µM need not be written.

Q) Find IC50 for COc1cccc2c1C(=O)c1c(O)c3c(c(O)c1C2=O)C[C@@](O)(C(=O)CO)C[C@@H]3O[C@H]1C[C@H](N)[C@H](O)[C@H](C)O1 on MES-SA cells and write it down.
A) 0.55

Q) Find IC50 for COc1cccc2c1C(=N)c1c(O)c3c(c(O)c1C2=O)C[C@@](O)(CCO)C[C@@H]3OC1CC(N)C(O)C(C)O1 (some centres unmarked) on MES-SA cells and write it down.
A) 10.5

====

Tested on: T47D breast ductal carcinoma cells
Assay: Antiproliferative activity, resazurin assay, T47D
Type: cell-based
Conditions: Homo sapiens; T47D breast ductal carcinoma; 48 hours drug, resazurin; mean ±SEM of 3 assays; read-out: Drug IC50 Values
Procedure: The growth inhibitory potency of 2-pyrrolino-5-imino-13-deoxydoxorubicin IV, 5-imino-13-deoxydoxorubicin III, and doxorubicin I against several cancer cell lines was evaluated using the resazurin fluorescence assay. […] The fluorescence (Ex560 nm/Em590 nm) was recorded using a BioTek SynergyHT multiwell plate fluorimeter. […] Thus, fluorescence is a proxy for cell viability and used to determine the effect of cytotoxic agents on cell cultures. […]
reportedMetric: pIC50
# reply with the number alone; pIC50 is -log10 of concentration in mol/L

Q) Given COc1cccc2c1C(=N)c1c(O)c3c(c(O)c1C2=O)C[C@@](O)(CCO)C[C@@H]3OC1CC(N)C(O)C(C)O1 (some centres unmarked) , respond with its pIC50.
A) 4.74

Q) Given COc1cccc2c1C(=O)c1c(O)c3c(c(O)c1C2=O)C[C@@](O)(C(=O)CO)C[C@@H]3O[C@H]1C[C@H](N)[C@H](O)[C@H](C)O1 , respond with its pIC50.
A) 4.99

====

test system: HT1080 fibrosarcoma cells; assay: cells; type: cell-based; conditions: Homo sapiens, HT-1080, 48 h, compound alone; HT1080; 48 hours; read-out: IC50
reportedMetric: IC50 (µM)
Give just the numeric value; µM need not be written.

Q) Given COc1cccc2c1C(=N)c1c(O)c3c(c(O)c1C2=O)C[C@@](O)(CCO)C[C@@H]3OC1CC(N)C(O)C(C)O1 (stereo partly shown) [Compound III, 5-imino-13-deoxydoxorubicin] , respond with its IC50.
A) 63.4

====

tested on: human cancer cell lines; test: Antiproliferative activity, average over the five cancer cell lines of Table 1; type: cell-based; conditions: Homo sapiens, read-out: Average Drug IC50 Values
reportedMetric: pIC50
# reply with the number alone; pIC50 is -log10 of concentration in mol/L

Q) Find pIC50 for COc1cccc2c1C(=N)c1c(O)c3c(c(O)c1C2=O)C[C@@](O)(CCO)C[C@@H]3OC1CC(N2C=CCC2)C(O)C(C)O1 (stereo partly shown) [Compound IV, 2-pyrrolino-5-imino-13-deoxydoxorubicin] on human cancer cell lines and write it down.
A) 6.31
